- ASSAY OVERVIEW: reduced viability of SK-BR-3 breast cancer cells – cell-based, 24 h, human, pilot screen (AID 572);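 further: compound exposure lasted between 18 and 24 h rather than exactly 24 h; 100% = carrier-treated control wells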
- RECORDED CONDITIONS: SK-BR-3 viability, CellTiter-Glo luminescence, at 10 µM, hits give low values
RECORDED METRIC: viability (%)

[
  {
    "COMPOUND": "CCCC(=O)OCC[N+](C)(C)C",
    "REPORTED MEASUREMENT": 83
  },
  {
    "COMPOUND": "Cc1ccc(-n2c(O)c(C=NCCN3CCOCC3)c(=O)[nH]c2=O)cc1",
    "REPORTED MEASUREMENT": 124
  },
  {
    "COMPOUND": "CCOC(=O)c1cc2c(cn1)[nH]c1ccccc12",
    "REPORTED MEASUREMENT": 122
  },
  {
    "COMPOUND": "Cc1ccc(CC2C(=O)N(C)C(=O)N(C)C2=O)s1",
    "REPORTED MEASUREMENT": 106
  },
  {
    "COMPOUND": "CC(=O)N1CC(=O)Nc2ccc(Cl)cc2C1c1ccc(F)cc1 (centres undefined)",
    "REPORTED MEASUREMENT": 92.5
  },
  {
    "COMPOUND": "O=C(O)c1nonc1-c1nonc1C(=O)O",
    "REPORTED MEASUREMENT": 99
  },
  {
    "COMPOUND": "Cc1cc(C)c(C(=O)CN2CCOCC2)c(C)c1",
    "REPORTED MEASUREMENT": 105
  },
  {
    "COMPOUND": "Cc1cccc(-n2c(-c3ccco3)nc3ccccc3c2=O)n1",
    "REPORTED MEASUREMENT": 105
  },
  {
    "COMPOUND": "COc1ccc2[nH]cc(CCN(C)C)c2c1",
    "REPORTED MEASUREMENT": 108
  },
  {
    "COMPOUND": "Cc1ccccc1NC1=NCCCS1",
    "REPORTED MEASUREMENT": 106
  },
  {
    "COMPOUND": "Cc1cc(OCC(=O)O)c2c3c(c(=O)oc2c1)CCCC3",
    "REPORTED MEASUREMENT": 132
  },
  {
    "COMPOUND": "CC(C)(C)C(O)C(Oc1ccc(Cl)cc1)n1cncn1 (centres undefined)",
    "REPORTED MEASUREMENT": 86.5
  },
  {
    "COMPOUND": "C[N+]1(C)CCc2cc3c(cc2[C@H]1[C@@H]1OC(=O)c2c1ccc1c2OCO1)OCO3",
    "REPORTED MEASUREMENT": 89.5
  },
  {
    "COMPOUND": "C=CCn1c(O)c(C(C)=NCCCO)c(=O)[nH]c1=O",
    "REPORTED MEASUREMENT": 93
  },
  {
    "COMPOUND": "CC1=NOC2(C)Nc3ncnn3C(c3ccccc3)C12 (centres undefined)",
    "REPORTED MEASUREMENT": 118
  },
  {
    "COMPOUND": "CNCC(O)c1ccc(O)cc1 (centres undefined)",
    "REPORTED MEASUREMENT": 120
  },
  {
    "COMPOUND": "N#Cc1ccccc1Cn1cc(C(=O)c2ccco2)c2ccccc21",
    "REPORTED MEASUREMENT": 98.5
  },
  {
    "COMPOUND": "C=CCN1C(=O)C2(C(C(=O)OCC)=C(N)Oc3c2c(=O)oc2ccccc32)c2ccccc21 (centres undefined)",
    "REPORTED MEASUREMENT": 61
  },
  {
    "COMPOUND": "C[C@@]1(CO)[C@H](O)CC[C@@]2(C)[C@H]1CC[C@H]1C[C@@H]3C[C@@]12CC[C@]3(O)CO",
    "REPORTED MEASUREMENT": 108
  },
  {
    "COMPOUND": "O=C(O)CCCc1ccc(N(CCCl)CCCl)cc1",
    "REPORTED MEASUREMENT": 78
  },
  {
    "COMPOUND": "COc1ccccc1N1CCN(Cc2c(F)cccc2F)CC1",
    "REPORTED MEASUREMENT": 89
  },
  {
    "COMPOUND": "Cc1oc2ccc(OC(=O)N(C)C)cc2c1C(=O)OC(C)C",
    "REPORTED MEASUREMENT": 96
  },
  {
    "COMPOUND": "O=C(c1ccncc1)C12CN3CN(CN(C3)C1)C2",
    "REPORTED MEASUREMENT": 115
  },
  {
    "COMPOUND": "c1cncc(CNC2=NCCCCC2)c1",
    "REPORTED MEASUREMENT": 80.5
  },
  {
    "COMPOUND": "CC(=NCCCO)c1c(O)n(Cc2ccccc2)c(=O)[nH]c1=O",
    "REPORTED MEASUREMENT": 95
  },
  {
    "COMPOUND": "Cc1[nH]c2c(Cl)cccc2c1CCN",
    "REPORTED MEASUREMENT": 97.5
  },
  {
    "COMPOUND": "Cc1ccc(C)c(NC2=NCCCS2)c1",
    "REPORTED MEASUREMENT": 108
  },
  {
    "COMPOUND": "C=C1CC[C@@]2(O)[C@H]3Cc4ccc(O)c5c4[C@@]2(CCN3CC2CC2)[C@H]1O5",
    "REPORTED MEASUREMENT": 101
  },
  {
    "COMPOUND": "O=c1[nH]c(=O)n(CCc2ccc(F)cc2)c(O)c1C=NCCCn1ccnc1",
    "REPORTED MEASUREMENT": 114
  },
  {
    "COMPOUND": "Cc1cccc(N2CCc3c2nc2ccccc2c3N)c1",
    "REPORTED MEASUREMENT": 84.5
  },
  {
    "COMPOUND": "CC(=O)Nc1ccc(OC(=O)c2ccccc2N)cc1",
    "REPORTED MEASUREMENT": 100
  },
  {
    "COMPOUND": "Nc1ccnn1C1CCNCC1",
    "REPORTED MEASUREMENT": 88.5
  },
  {
    "COMPOUND": "CCCCCCC(N)CC(=O)O (centres undefined)",
    "REPORTED MEASUREMENT": 106
  },
  {
    "COMPOUND": "CCCNS(=O)(=O)c1ccc(OCC(=O)N2CCN(Cc3ccccc3)CC2)cc1",
    "REPORTED MEASUREMENT": 111
  },
  {
    "COMPOUND": "CCCCn1c(O)c(C(C)=Nc2cccc(C(=O)O)c2)c(=O)[nH]c1=O",
    "REPORTED MEASUREMENT": 108
  },
  {
    "COMPOUND": "O=C1CC(N2CCC(n3c(=O)[nH]c4ccccc43)CC2)C(=O)N1c1ccc(F)cc1 (centres undefined)",
    "REPORTED MEASUREMENT": 93.5
  },
  {
    "COMPOUND": "O=c1c2ccccc2[se]n1-c1ccccc1",
    "REPORTED MEASUREMENT": 67
  },
  {
    "COMPOUND": "O=C(Cn1c2c(c(-c3ccccc3Cl)cc1=O)CCC2)N1CCC2(CC1)OCCO2",
    "REPORTED MEASUREMENT": 102
  },
  {
    "COMPOUND": "NCC(CC(=O)O)c1ccc(Cl)cc1 (centres undefined)",
    "REPORTED MEASUREMENT": 83
  },
  {
    "COMPOUND": "CCOC(=O)C1CCCCC12C(C#N)=C(N)Oc1n[nH]c(C)c12 (centres undefined)",
    "REPORTED MEASUREMENT": 91.5
  },
  {
    "COMPOUND": "COc1ccc(OC)c(C(O)C(C)N)c1 (centres undefined)",
    "REPORTED MEASUREMENT": 104
  },
  {
    "COMPOUND": "O=c1c2ccccc2nc(CSc2ncnc3nc[nH]c23)n1-c1ccccc1",
    "REPORTED MEASUREMENT": 96
  },
  {
    "COMPOUND": "CC(C)C(=O)N1CCN(CCN=Cc2c(O)n(C)c(=O)n(C)c2=O)CC1",
    "REPORTED MEASUREMENT": 100
  },
  {
    "COMPOUND": "COc1ccc(N2CCN(CCCN)CC2)cc1",
    "REPORTED MEASUREMENT": 94.5
  },
  {
    "COMPOUND": "COc1ccc(OC)c([C@@H](O)[C@H](C)NC(C)(C)C)c1",
    "REPORTED MEASUREMENT": 100
  },
  {
    "COMPOUND": "O=c1[nH]c(=O)n(-c2ccc(F)cc2)c(O)c1C=Nc1ccccc1N1CCCC1",
    "REPORTED MEASUREMENT": 97.5
  },
  {
    "COMPOUND": "CCCCn1c(O)c(C(C)=NC(Cc2c[nH]c3ccccc23)C(=O)OC)c(=O)[nH]c1=O (centres undefined)",
    "REPORTED MEASUREMENT": 91
  },
  {
    "COMPOUND": "CCCCn1c(O)c(C=NC2CCCCC2N)c(=O)[nH]c1=O (centres undefined)",
    "REPORTED MEASUREMENT": 128
  },
  {
    "COMPOUND": "CCCNC(=O)c1c(N)n(Cc2ccc3c(c2)OCO3)c2nc3ccccc3nc12",
    "REPORTED MEASUREMENT": 102
  }
]
